# Tested on: Direct Seeded Rice and weed species
# assay_text: Postemergence herbicidal activity in direct seeded rice, visual rating after 20-22 days and probit GR20/GR50/GR80/GR90 (Table 14)
# Type: in vivo
# experimental_parameters: post-emergence, 504 h; ORYSK (Oryza sativa, rice crop); 35 g ai/ha; postemergence; read-out: Visual Growth Reduction (%) 21 Days After Application ORYSK
endpoint: pest or weed control at 35 g/ha

> print(dat)
                                   compound  observed.result
1  Nc1c(F)c(-c2ccc3c(c2F)OC(F)(F)O3)nc(C(=O)O)c1Cl [Compound 11]        60 to 74%
2  COc1c(C(=O)O)nc(-c2ccc3c(c2)OC(F)(F)O3)c(F)c1N [Compound 25]        85 to 94%
3  Nc1cc(-c2cc3c(cc2F)OC(F)(F)O3)nc(C(=O)O)c1Cl [Compound 42]        75 to 84%
